From: the supplement of paper PMC12042874

- test.protocol: amyloid nucleation score (Sup35N fusion, yeast selection) (log enrichment); library NNK2; higher = more nucleation; inactive = no reads after selection;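 also: zero at mode of non-aggregating sequences after 7 days selection at 30°C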
Rule: label 1 for amyloid nucleation score not less than -0.03, label 0 for anything less.

LALTWKAWTTHSPRKLAAVF; label 1
TFDPMVGLGISLSALCMGRL; label 0
ISRYEGRRLKCDGITFGYSG; label 0
WNKWSGLVLYTLGKLSY; label 0
LVHMLCQ; label 1

* * *

- test.protocol: amyloid nucleation score (Sup35N fusion, yeast selection) (log enrichment); library NNK2; higher = more nucleation; inactive = no reads after selection
attribute.measured: amyloid nucleation score

FMLYMRLCKFYYFFGS; -1.29
RTYGYRDIQVQYRFCFCRGD; 8.59
GNESDVSTIYKGDIPLLGVL; -1.05
GVGVLGVLNYVCWLMQCCGL; 0.987
PVNCGWQGEDRTVEILHAHG; 1.13
LVREWHRKNSSGPRIVVRRQ; 4.18
ETFVYYFNVSSLVT; 0.11
KLCLGIGCRRQDTQAFGPPL; 5.65
FLNNDRYRR; -1.67
SNLNPVHSDLLMYEMPCNLT; -0.492
RLENMCMASPR; 0.464
QWSAILFSMRWFVKKSEFSC; 3.48
CMPMISRVLGCDNSYYMSSA; 0.029
VYLCARKGM; -0.287
PDWMRGSSEYWSVGPRYCNS; 0.355
RGCIGK; -0.161
GLSELMKGLLTN; 0.08
FKFVYNVKCPYWWTLSFMEV; 0.75
ACFHGFPIYGCLLANAMCGR; 1.33
SLAWARISGVVAICTVGRGF; 7.44
RYHSRAWAPYCTTHATVPEV; 1.28
NRECCTSDLRIMNVLRPL; -0.028
ISFDLCIKRWQK; 5.95
LAMMELYVSRETGLWYM; -0.503
FIKMSNSWAYDAEFSVPLHM; 3.84
SNCYLKRSYGFRDIITKIRY; 1.24
VGGVIYAYGFVFF; 7.38
TDRIDCAFAYDYL; -1.08
PRIFFYVNLFLRHWPEIKML; -2.08
SLETFNVTPCRDVT; -0.633
VLAKISTTE; 0.705
CSYFMGLIVILRVKCRYMLK; -1.18
FYIIRD; -0.866
YMSGGVRKGPIAKALNFVRS; -0.854
CHVVVVLEF; 2.71
YYSKNAVVWVNGCVRRVMII; 0.127
IEFSDQVRCYLFCCRC; 8.98
SRMRVLFALLQDFQSHVGSV; 1.36
KIEVRLRVTYGYSSLVQAVG; -0.326
VFSGTSMRGTEEIKMSWCEK; 7.69
SSLWVWYLIVD; 0.145

* * *

- test.protocol: amyloid nucleation score (Sup35N fusion, yeast selection) (log enrichment); library NNK3; higher = more nucleation; inactive = no reads after selection
attribute.measured: amyloid nucleation score

MDGGFECGNEGICWSTCVLG; inactive
GKYVVIDIGRSYFSKISGFR; inactive
RMHMKLVGKG; inactive
KGASIYMVTLFSSSNAKM; 1.28
FYYANMTRSKILAPFSRPSR; inactive
IFLGYRNYDYFSFTVLVE; inactive
TSHPYNHVESSG; 0.972
PVTFSCYNTLACIKLYYGNV; 2.56
CVFIFLKSCKYKVVKGINGV; inactive
FQCWYNKIRKFWVVHRWVSM; inactive
VEKCKLLFVTTHECLCHCSR; inactive
